system: MCF10A; assay: 5+ nucleoli phenotype percent effect (relative to siNT 0% and siKIF11 100%); higher = more cells with five or more nucleoli; conditions: 20 nM; 72 h
Measured 5+ nucleoli phenotype percent effect determines class: bottom range = under -10%, center range = from -10% up to 10%, top range = 10% and over

Consider the following illustrative entries.
sequence code: AUCUGCCAGCUUCCACAGUGG [hsa-miR-4727-5p]
target or system: MCF10A
assigned class: bottom range
//
sequence code: UCUGGUAUGUAGUAGGUAAUAA [hsa-miR-4774-5p]
target or system: MCF10A
assigned class: top range

Next item in the queue.
Q: Bin? CGGCAACAAGAAACUGCCUGAG [hsa-miR-196a-3p]
Ans: bottom range

====

Form field: one-nucleolus phenotype percent effect (one value per entry).
system: MCF10A; experiment: one-nucleolus phenotype percent effect (relative to siNT 0% and siNOL11 100%); higher = more cells with one nucleolus (ribosome biogenesis inhibition); conditions: 20 nM; 72 h
# number only, unit % dropped from output

sequence code: GUACCUUCUGGUUCAGCUAGU [hsa-miR-4724-3p]
target or system: MCF10A
endpoint unit: %
one-nucleolus phenotype percent effect: -22.1
//
sequence code: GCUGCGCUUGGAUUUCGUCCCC [hsa-miR-191-3p]
target or system: MCF10A
endpoint unit: %
one-nucleolus phenotype percent effect: 5.27
//
sequence code: AGCAUGACAGAGGAGAGGUGG [hsa-miR-6076]
target or system: MCF10A
endpoint unit: %
one-nucleolus phenotype percent effect: 7.38
//
sequence code: ACACAUGGGUGGCUGUGGCCU [hsa-miR-4717-3p]
target or system: MCF10A
endpoint unit: %
one-nucleolus phenotype percent effect: -12.1
//
sequence code: AAAAGUAAUUGCGGUUUUUGCC [hsa-miR-548am-5p]
target or system: MCF10A
endpoint unit: %
one-nucleolus phenotype percent effect: -17.6
//
sequence code: GGUGGGGGCUGUUGUUU [hsa-miR-4447]
target or system: MCF10A
endpoint unit: %
one-nucleolus phenotype percent effect: 38.7
//
sequence code: AGGGACCUGAGUGUCUAAG [hsa-miR-3649]
target or system: MCF10A
endpoint unit: %
one-nucleolus phenotype percent effect: 9.08
//
sequence code: UGCGGCAGAGCUGGGGUCA [hsa-miR-6820-5p]
target or system: MCF10A
endpoint unit: %
one-nucleolus phenotype percent effect: 11.9

Moving on to the next sequence.
Q: Consider the sequence AUCAGGGCUUGUGGAAUGGGAAG [hsa-miR-3127-5p] and give its recorded one-nucleolus phenotype percent effect.
Ans: 49.5

====

test system: MCF10A; experiment: percent viability (nuclei count relative to siNT); higher = more viable cells; details: 20 nM; 72 h
endpoint: percent viability (%)
# number only, unit % dropped from output

Use the examples below as a reference point.
sequence code: UUUGGACAGAAAACACGCAGGU [hsa-miR-4520b-3p]
endpoint unit: %
percent viability: 87
--
sequence code: AGGGAGGGUGUGGUAUGGAUGU [hsa-miR-6883-5p]
endpoint unit: %
percent viability: 42

Moving on to the next sequence.
Q: Consider the sequence GUAUACACCUGAUAUGUGUAUG [hsa-miR-4789-5p] and give its recorded percent viability.
Ans: 67.5

====

test system: MCF10A; test: 5+ nucleoli phenotype percent effect (relative to siNT 0% and siKIF11 100%); higher = more cells with five or more nucleoli; details: 20 nM; 72 h
endpoint: 5+ nucleoli phenotype percent effect (%)
# number only, unit % dropped from output

Use the examples below as a reference point.
sequence code: AAUCAUGUGCAGUGCCAAUAUG [hsa-miR-96-3p]
endpoint unit: %
endpoint value: 24.5

sequence code: AGAGCUUAGCUGAUUGGUGAAC [hsa-miR-27b-5p]
endpoint unit: %
endpoint value: -22.4

sequence code: UCAGUUCCAGGCCAACCAGGCU [hsa-miR-584-3p]
endpoint unit: %
endpoint value: 3.58

sequence code: UUGGGGUGGAGGGCCAAGGAGC [hsa-miR-6819-5p]
endpoint unit: %
endpoint value: 2.57

sequence code: GGGAGUGCAGGGCAGGGUUUC [hsa-miR-504-3p]
endpoint unit: %
endpoint value: -22.6

Q: Consider the sequence AGCAAGGCGGCAUCUCUCUGAU [hsa-miR-4708-3p] and give its recorded 5+ nucleoli phenotype percent effect.
Ans: -21.8

Q: Consider the sequence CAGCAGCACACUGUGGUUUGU [hsa-miR-497-5p] and give its recorded 5+ nucleoli phenotype percent effect.
Ans: -38.4

Q: Consider the sequence UGCCUCCCUGACAUUCCACAG [hsa-miR-6778-3p] and give its recorded 5+ nucleoli phenotype percent effect.
Ans: -21

====

system: MCF10A; assay: one-nucleolus phenotype percent effect (relative to siNT 0% and siNOL11 100%); higher = more cells with one nucleolus (ribosome biogenesis inhibition); conditions: 20 nM; 72 h
Tick Met if one-nucleolus phenotype percent effect is 10% or greater. Tick Not met if one-nucleolus phenotype percent effect is less than 10%.

Q: Entry UAAGGGGUGUAUGGCAGAUGCA [hsa-miR-3936] : is its one-nucleolus phenotype percent effect no less than 10%?
Ans: Met

Q: Entry UUCUGGAUAUGAAGACAAUCAA [hsa-miR-4782-5p] : is its one-nucleolus phenotype percent effect no less than 10%?
Ans: Met

Q: Entry CGGGCGUGGUGGUGGGGG [hsa-miR-1268a] : is its one-nucleolus phenotype percent effect no less than 10%?
Ans: Not met

Q: Entry UGAGGCAGUAGAUUGAAU [hsa-miR-1827] : is its one-nucleolus phenotype percent effect no less than 10%?
Ans: Met

Q: Entry UUCUGGAAUUCUGUGUGAGGGA [hsa-miR-1299] : is its one-nucleolus phenotype percent effect no less than 10%?
Ans: Met

Q: Entry ACUGGGAUGUCACUGAAUAUGGU [hsa-miR-6506-5p] : is its one-nucleolus phenotype percent effect no less than 10%?
Ans: Met

Q: Entry AAGUAGUUGGUUUGUAUGAGAUGGUU [hsa-miR-1244] : is its one-nucleolus phenotype percent effect no less than 10%?
Ans: Met

Q: Entry UUCGGUAUACUUUGUGAAUUGG [hsa-miR-4798-5p] : is its one-nucleolus phenotype percent effect no less than 10%?
Ans: Not met

Q: Entry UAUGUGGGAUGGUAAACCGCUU [hsa-miR-299-3p] : is its one-nucleolus phenotype percent effect no less than 10%?
Ans: Met

Q: Entry CACAUGGCCGAAACAGAGAAGU [hsa-miR-942-3p] : is its one-nucleolus phenotype percent effect no less than 10%?
Ans: Not met

Q: Entry AAUAAAGUUCAUGUAUGGCAA [hsa-miR-5590-3p] : is its one-nucleolus phenotype percent effect no less than 10%?
Ans: Not met

Q: Entry CUCCUGGGGCCCGCACUCUCGC [hsa-miR-1343] : is its one-nucleolus phenotype percent effect no less than 10%?
Ans: Not met

====

Form field: percent viability (one value per entry).
system: MCF10A; test: percent viability (nuclei count relative to siNT); higher = more viable cells; details: 20 nM; 72 h
# number only, unit % dropped from output

sequence code: GAAGAUGGUGCUGUGCUGAGGAA [hsa-miR-4647]
target or system: MCF10A
endpoint value: 60.7

sequence code: UGUUCAUGUAGAUGUUUAAGC [hsa-miR-1206]
target or system: MCF10A
endpoint value: 95.8

sequence code: CGGGGCCAGAGCAGAGAGC [hsa-miR-6845-5p]
target or system: MCF10A
endpoint value: 53.6

sequence code: UAUAAAAUGAGGGCAGUAAGAC [hsa-miR-3163]
target or system: MCF10A
endpoint value: 53

Q: Consider the sequence AGGCAAGAUGCUGGCAUAGCU [hsa-miR-31-5p] and give its recorded percent viability.
Ans: 16.8

Q: Consider the sequence CAGCCCUCCUCCCGCACCCAAA [hsa-miR-4687-5p] and give its recorded percent viability.
Ans: 80.6

Q: Consider the sequence ACAUUGCCAGGGAGUUU [hsa-miR-4317] and give its recorded percent viability.
Ans: 45.1

Q: Consider the sequence UGAGGUAGUAGUUUGUACAGUU [hsa-let-7g-5p] and give its recorded percent viability.
Ans: 21.6

Q: Consider the sequence AGAGGAUACCCUUUGUAUGUU [hsa-miR-1185-5p] and give its recorded percent viability.
Ans: 34.2

Q: Consider the sequence UGACUGAGCUUCUCCCCACAG [hsa-miR-6857-3p] and give its recorded percent viability.
Ans: 34.9

Q: Consider the sequence CUCUGAUCGCCCUCUCAGCUC [hsa-miR-3192-3p] and give its recorded percent viability.
Ans: 34.9

Q: Consider the sequence GGACCCACCCGGCCGGGAAUA [hsa-miR-1180-5p] and give its recorded percent viability.
Ans: 75.2

Q: Consider the sequence UGGCCAAAAAGCAGGCAGAGA [hsa-miR-3926] and give its recorded percent viability.
Ans: 31.6
